# PROCEDURE SUMMARY: Human hepatocyte stability
# Format: in vitro ADME
# EXPERIMENTAL PARAMETERS: human, pooled human hepatocytes, human hepatocytes, 1 μM, 60 minute incubation; read-out: Human t1/2
Each item that follows carries a reported half-life at 1 μM.
The reply should contain only the number, in h.

Lookup: Data request, read-out half-life at 1 μM, for `C[C@]1(O)CC[C@@H](CS(=O)(=O)c2ccc(-c3ccc(Cl)cc3Cl)cc2)CC1`
Found: 2.87

Lookup: # repeat for `C[C@]1(O)CC[C@H](CS(=O)(=O)c2ccc(-c3ccc(F)cc3F)cc2C(F)(F)F)CC1`
Found: 2.3

====

# TGT: CYP2C9 (Homo sapiens (Human))
# Sequence (P11712 whole entry): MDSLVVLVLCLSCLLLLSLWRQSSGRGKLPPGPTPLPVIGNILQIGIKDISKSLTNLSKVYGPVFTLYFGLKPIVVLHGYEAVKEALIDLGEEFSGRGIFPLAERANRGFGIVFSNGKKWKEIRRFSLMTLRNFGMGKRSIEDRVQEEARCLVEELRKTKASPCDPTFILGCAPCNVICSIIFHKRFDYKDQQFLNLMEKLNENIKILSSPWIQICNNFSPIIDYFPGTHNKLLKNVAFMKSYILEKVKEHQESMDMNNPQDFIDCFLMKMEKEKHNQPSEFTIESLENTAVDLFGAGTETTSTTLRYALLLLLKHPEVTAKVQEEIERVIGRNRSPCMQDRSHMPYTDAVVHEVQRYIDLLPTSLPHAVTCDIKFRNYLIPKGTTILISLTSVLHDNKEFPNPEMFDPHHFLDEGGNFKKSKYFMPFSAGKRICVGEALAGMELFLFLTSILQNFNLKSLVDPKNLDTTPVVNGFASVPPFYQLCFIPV
# PROCEDURE SUMMARY: Human Cytochrome P450 Inhibition Assay (Bactosomes)
# EXPERIMENTAL PARAMETERS: recombinant Bactosomes, 10 minutes, 37° C.
ASSAY ENDPOINT: pIC50
Please treat pIC50 as minus the base-10 logarithm of the molar concentration.

These solved cases illustrate the format of a correct answer.
molecule="CC1(O)CCC(NS(=O)(=O)c2ccc(-c3cc(F)c(F)cc3F)cc2)CC1 (stereo not shown) [HMC-C-10-B, reference compound]" tgt="CYP2C9 (Homo sapiens (Human))" recorded_number=5.62
molecule="CC1(O)CCC(NS(=O)(=O)c2ccc(-c3ncc(Cl)cc3C#N)cc2)CC1 (stereo not shown) [HMC-N-05-A, reference compound]" tgt="CYP2C9 (Homo sapiens (Human))" recorded_number=4.57
molecule="CC1(O)CCC(NS(=O)(=O)c2ccc(-c3ccc(C#N)cc3Cl)cc2)CC1 (stereo not shown) [HMC-C-09-A, reference compound]" tgt="CYP2C9 (Homo sapiens (Human))" recorded_number=4.47

Lookup: Data request, read-out pIC50, for C[C@]1(O)CC[C@H](NS(=O)(=O)c2ccc(-c3ccc(Cl)cc3C#N)cc2)CC1 [HMC-C-01-A, reference compound]
Found: 4.68

====

Each item that follows carries a reported hepatocyte CLint at 1 μM.
# PROCEDURE SUMMARY: Human hepatocyte stability
# Assay type: in vitro ADME
# EXPERIMENTAL PARAMETERS: human, pooled human hepatocytes, human hepatocytes, 1 μM, 60 minute incubation; read-out: Human Clint (uL/min/million cells)

These solved cases illustrate the format of a correct answer.
compound=C[C@]1(O)CC[C@H](CS(=O)(=O)c2ccc(-c3ccc(C#N)cc3)c(F)c2)CC1 assay_endpoint="hepatocyte CLint at 1 μM" result="< 3.1 µL/min/1e6 cells"
compound="C[C@]1(O)CC[C@H](NS(=O)(=O)c2ccc(-c3ccc(Cl)cc3C#N)cc2)CC1 [HMC-C-01-A, reference compound]" assay_endpoint="hepatocyte CLint at 1 μM" result="7.6 µL/min/1e6 cells"
compound=C[C@]1(O)CC[C@@H](CS(=O)(=O)c2ccc(-c3ccc(C#N)cc3F)cc2C(F)(F)F)CC1 assay_endpoint="hepatocyte CLint at 1 μM" result="< 3.3 µL/min/1e6 cells"

Please examine the following record next.
Lookup: Data request, read-out hepatocyte CLint at 1 μM, for `C[C@]1(O)CC[C@@H](CS(=O)(=O)c2ccc(-c3ccc(C#N)cc3)c(F)c2)CC1`
Found: < 3.1 µL/min/1e6 cells

====

Each item that follows carries a reported half-life at 1 μM.
# PROCEDURE SUMMARY: Rat hepatocyte stability
# Type: in vitro ADME
# EXPERIMENTAL PARAMETERS: rat, pooled rat hepatocytes, 60 minute incubation, read-out: Rat t1/2
The reply should contain only the number, in min.

smi=C[C@]1(O)CC[C@H](CS(=O)(=O)c2ccc(-c3ccc(F)cc3F)cc2)CC1 recorded_number=31.4

Lookup: Data request, read-out half-life at 1 μM, for `C[C@]1(O)CC[C@@H](CS(=O)(=O)c2ccc(-c3ccc(Cl)cc3C#N)cc2)CC1`
Found: 10.7

Lookup: # repeat for `C[C@]1(O)CC[C@@H](CS(=O)(=O)c2ccc(-c3ncc(F)cc3F)c(F)c2)CC1`
Found: 91.2

Lookup: # repeat for `C[C@]1(O)CC[C@H](CS(=O)(=O)c2ccc(-c3ccc(Cl)cc3C#N)cc2)CC1`
Found: 4.8

====

# TGT: UniProt:P08684
# Sequence (P08684 whole entry): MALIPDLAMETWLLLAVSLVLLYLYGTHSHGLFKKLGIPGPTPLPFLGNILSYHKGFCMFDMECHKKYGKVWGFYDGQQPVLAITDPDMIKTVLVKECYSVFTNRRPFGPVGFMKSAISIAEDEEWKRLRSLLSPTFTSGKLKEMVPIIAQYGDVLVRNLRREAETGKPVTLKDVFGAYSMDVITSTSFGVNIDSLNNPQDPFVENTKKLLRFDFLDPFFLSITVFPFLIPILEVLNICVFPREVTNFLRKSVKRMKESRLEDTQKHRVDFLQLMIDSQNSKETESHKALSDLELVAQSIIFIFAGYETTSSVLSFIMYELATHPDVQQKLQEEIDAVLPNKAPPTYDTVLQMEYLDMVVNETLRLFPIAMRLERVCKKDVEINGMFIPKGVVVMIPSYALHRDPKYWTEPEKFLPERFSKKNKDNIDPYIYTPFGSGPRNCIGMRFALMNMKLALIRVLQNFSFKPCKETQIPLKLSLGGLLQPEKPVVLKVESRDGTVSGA
# PROCEDURE SUMMARY: Human Cytochrome P450 Inhibition Assay (Bactosomes)
# EXPERIMENTAL PARAMETERS: recombinant Bactosomes, 10 minutes, 37° C.
ASSAY ENDPOINT: IC50

These solved cases illustrate the format of a correct answer.
compound="C[C@]1(O)CC[C@@H](CS(=O)(=O)c2ccc(-c3ncc(F)cc3F)cc2C(F)(F)F)CC1 [CHMSA-09-A]" result="> 25 µM"
compound="C[C@]1(O)CC[C@@H](CS(=O)(=O)c2ccc(-c3ccc(C#N)cc3F)cc2C(F)(F)F)CC1 [CHMSA-02-A]" result="> 50 µM"
compound="C[C@]1(O)CC[C@@H](CS(=O)(=O)c2ccc(-c3ncc(F)cc3F)c(F)c2)CC1 [CHMSA-03-A]" result="> 50 µM"
compound="C[C@]1(O)CC[C@@H](CS(=O)(=O)c2ccc(-c3ccc(C#N)cc3F)cc2)CC1 [CHMSA-01-A]" result="> 50 µM"
compound="C[C@]1(O)CC[C@H](NS(=O)(=O)c2ccc(-c3ccc(Cl)cc3C#N)cc2)CC1 [HMC-C-01-A, reference compound]" result="> 25 µM"
compound="C[C@]1(O)CC[C@H](CS(=O)(=O)c2ccc(-c3ccc(C#N)cc3F)cc2C(F)(F)F)CC1 [CHMSA-02-B]" result="> 10 µM"

Lookup: Data request, read-out IC50, for CC1(O)CCC(NS(=O)(=O)c2ccc(-c3ncc(Cl)cc3C#N)cc2)CC1 (stereo not shown) [HMC-N-05-A, reference compound]
Found: > 50 µM

====

# TGT: CYP2D6 (Homo sapiens (Human))
# Sequence (P10635 whole entry): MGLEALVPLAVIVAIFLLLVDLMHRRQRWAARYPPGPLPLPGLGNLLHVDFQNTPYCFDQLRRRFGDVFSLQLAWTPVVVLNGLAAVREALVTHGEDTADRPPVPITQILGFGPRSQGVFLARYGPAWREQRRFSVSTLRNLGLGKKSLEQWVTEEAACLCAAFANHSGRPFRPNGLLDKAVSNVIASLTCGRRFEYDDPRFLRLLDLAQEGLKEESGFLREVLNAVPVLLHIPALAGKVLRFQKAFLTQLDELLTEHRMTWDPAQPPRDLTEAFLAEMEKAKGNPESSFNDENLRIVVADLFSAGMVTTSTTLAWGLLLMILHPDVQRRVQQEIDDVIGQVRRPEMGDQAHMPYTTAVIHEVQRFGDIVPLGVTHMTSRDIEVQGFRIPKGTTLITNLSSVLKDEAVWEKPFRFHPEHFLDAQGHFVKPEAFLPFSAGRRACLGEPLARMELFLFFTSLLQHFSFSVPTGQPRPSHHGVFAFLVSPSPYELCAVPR
# PROCEDURE SUMMARY: Human Cytochrome P450 Inhibition Assay (Bactosomes)
# EXPERIMENTAL PARAMETERS: recombinant Bactosomes, 10 minutes, 37° C.
Each item that follows carries a reported pIC50.
Please treat pIC50 as minus the base-10 logarithm of the molar concentration.

compound="C[C@]1(O)CC[C@H](NS(=O)(=O)c2ccc(-c3ccc(Cl)cc3C#N)cc2)CC1 [HMC-C-01-A, reference compound]" recorded_number=4.78

Lookup: Data request, read-out pIC50, for CC1(O)CCC(NS(=O)(=O)c2ccc(-c3ccc(Cl)cc3C#N)c(Cl)c2)CC1 (stereo not shown) [HMC-C-11-A, reference compound]
Found: 5.03

====

Each item that follows carries a reported half-life at 1 μM.
# PROCEDURE SUMMARY: Human hepatocyte stability
# Assay type: in vitro ADME
# EXPERIMENTAL PARAMETERS: human, pooled human hepatocytes, human hepatocytes, 1 μM, 60 minute incubation; read-out: Human t1/2
The reply should contain only the number, in h.

These solved cases illustrate the format of a correct answer.
compound="O=S(=O)(N[C@H]1CC[C@H](O)CC1)c1ccc(-c2ccc(F)cc2F)cc1 [ABD599, reference compound]" recorded_number=1.87
compound=C[C@]1(O)CC[C@H](CS(=O)(=O)c2ccc(-c3ccc(C#N)cc3F)cc2C(F)(F)F)CC1 recorded_number=2.03

Lookup: Data request, read-out half-life at 1 μM, for `C[C@]1(O)CC[C@H](CS(=O)(=O)c2ccc(-c3ccc(C#N)cc3Cl)cc2)CC1`
Found: 3.79

====

# TGT: CYP2C9 (Homo sapiens (Human))
# PROCEDURE SUMMARY: Human Cytochrome P450 Inhibition Assay (Bactosomes)
# EXPERIMENTAL PARAMETERS: recombinant Bactosomes, 10 minutes, 37° C.
ASSAY ENDPOINT: IC50

Lookup: Data request, read-out IC50, for C[C@]1(O)CC[C@@H](CS(=O)(=O)c2ccc(-c3ccc(C#N)cc3F)cc2C(F)(F)F)CC1 [CHMSA-02-A]
Found: > 50 µM

Lookup: # repeat for C[C@]1(O)CC[C@H](CS(=O)(=O)c2ccc(-c3ccc(F)cc3F)cc2C(F)(F)F)CC1 [CHMSA-08-B]
Found: > 25 µM

Lookup: # repeat for C[C@]1(O)CC[C@@H](CS(=O)(=O)c2ccc(-c3ncc(F)cc3F)cc2C(F)(F)F)CC1 [CHMSA-09-A]
Found: > 25 µM

====

# PROCEDURE SUMMARY: Human hepatocyte stability
# Assay type: in vitro ADME
# EXPERIMENTAL PARAMETERS: human, pooled human hepatocytes, human hepatocytes, 1 μM, 60 minute incubation; read-out: Human t1/2
ASSAY ENDPOINT: half-life at 1 μM

These solved cases illustrate the format of a correct answer.
molecule="C[C@]1(O)CC[C@@H](CS(=O)(=O)c2ccc(-c3ccc(C#N)cc3)c(F)c2)CC1 [CHMSA-12-A]" result="> 7.27 h"
molecule="C[C@]1(O)CC[C@H](CS(=O)(=O)c2ccc(-c3ncc(F)cc3F)c(F)c2)CC1 [CHMSA-03-B]" result="> 7.67 h"

Please examine the following record next.
Lookup: Data request, read-out half-life at 1 μM, for C[C@]1(O)CC[C@H](CS(=O)(=O)c2ccc(-c3ccc(C#N)cc3)c(F)c2)CC1 [CHMSA-12-B]
Found: > 7.36 h
